# Tested on: E. coli
# ASSAY_NAME: MIC assay, E. coli
# Type: cell-based
Please go through the items and note down their MIC (μg/mL) E. coli.
Numbers only, in µg/mL.

COMPOUND_STRUCTURE | TESTED_SYSTEM | MIC (μg/mL) E. coli (µg/mL)
CO[C@H]1/C=C/O[C@@]2(C)Oc3c(C)c(O)c4c(=O)c(c5oc6cc(N7C[C@@H]8CCCN[C@@H]8C7)cc(O)c6nc-5c4c3C2=O)NC(=O)/C(C)=C\C=C\[C@H](C)[C@H](O)[C@@H](C)[C@@H](O)[C@@H](C)[C@H](OC(C)=O)[C@@H]1C | E. coli | 8
CCCS(=O)(=O)NC1CCN(c2cc(O)c3nc4c5c6c7c(C)c(O)c5c(=O)c(c-4oc3c2)NC(=O)/C(C)=C\C=C\[C@H](C)[C@H](O)[C@@H](C)[C@@H](O)[C@@H](C)[C@H](OC(C)=O)[C@H](C)[C@@H](OC)/C=C/O[C@@](C)(O7)C6=O)CC1 | E. coli | 8

Then this compound:
The measured MIC (μg/mL) E. coli associated with `CO[C@H]1/C=C/O[C@@]2(C)Oc3c(C)c(O)c4c(=O)c(c5oc6cc(N7CCC(CCO)CC7)cc(O)c6nc-5c4c3C2=O)NC(=O)/C(C)=C\C=C\[C@H](C)[C@H](O)[C@@H](C)[C@@H](O)[C@@H](C)[C@H](O)[C@@H]1C` reads 4

Provenance of the data: patent US7342011B2
